These data points were gathered from patent US20080008707A1.

target: HUI77, murine IgM anti-denatured-collagen monoclonal antibody; assay: competition ELISA on coated dn-collagen IV
Square brackets hold non-standard residues; d marks the D form. Ends that are not written are not given here. Hyp = O=C(O)[C@@H]1C[C@@H](O)CN1
Rule: satisfied for % inhibition of HUI77 binding to dn-collagen IV, peptide 100 µM not less than 9%, not satisfied for anything less.

| binder | cat |
| --- | --- |
| L[Hyp]GL[Hyp]G [synthetic peptide No. 14, LPGLPG (SEQ ID NO: 25)] | satisfied |
| [Hyp]GAKGLPGP [synthetic peptide No. 13, … (SEQ ID NO: 17)] | satisfied |
| L[Hyp]GF[Hyp]G [synthetic peptide No. 19, LPGFPG (SEQ ID NO: 23)] | satisfied |
| GPXGPXG (contains hydroxyproline ('where P is hydroxyproline'); positions marked in the tables but lost in this text) [synthetic peptide No. 15, GPPGPPG (SEQ ID NO: 32)] | not satisfied |
| PGP[Hyp]GP[Hyp]GPY [synthetic peptide No. 4, … (SEQ ID NO: 28)] | satisfied |
